Target: catalytic subunit of protein phosphatase 1 (PP1c), α isoform (human, UniProt P62136 1-300)
Test: ITC
Experimental readout: Kd (nM)
Value expressed in nM; do not type the unit.

Prompt: I'd like to know its Kd. The binder in question is KPLKKLRFDIEGS [Rb^870–882 peptide]
Completion: 1200

Reference for the values: paper PMC2933323
